protocol-text: qHTS of pediatric cancer cell lines to identify multiple opportunities for drug repurposing: Primary screen for SK-N-MC cells (AID 1347093)
stated-conditions: SK-N-MC viability, CellTiter-Glo luminescence, 48 h; series mostly up to 46 µM
Results filed as inconclusive are left out. Activity calls are given as the source filed them. Calls follow the shape of the dose curve; as a rule, active = well fitted cell-killing curve with a large enough effect; inconclusive = small, poorly fitted or top-dose-only effect; inactive = no such curve, though single readings can be large or run the other way.
Outcome codes: 1.0 (active), 0.0 (inactive)

compound: Nc1c(NC/C=C\COc2cc(CN3CCCCC3)ccn2)c(=O)c1=O
class-assignment: 0.0
--
compound: O=[N+]([O-])c1nccn1CO[C@@H](CO)[C@H](O)CO
class-assignment: 0.0
--
compound: Cc1ccc(C(=O)Oc2ccc(C(O)CNC(C)(C)C)cc2OC(=O)c2ccc(C)cc2)cc1 (stereo not drawn)
class-assignment: 1.0

====

protocol-text: qHTS Assay for Lipid Storage Modulators (AID 1519)
stated-conditions: Drosophila S3 cells, BODIPY lipid droplet/cell ratio, laser cytometry; measured here: lipid channel max response; cells loaded with oleic acid
Results filed as inconclusive are left out.
Catalogue of max response values

cpd-smiles: COc1cccc2c1[C@@H]1CN(CCCCn3c(=O)[nH]c4c(sc5ncc(-c6ccccc6)nc54)c3=O)C[C@@H]1CO2
max response, %: 9.55
//
cpd-smiles: CCN(CC)CCOc1ccc(/C(=C(\Cl)c2ccccc2)c2ccccc2)cc1
max response, %: 11.5
//
cpd-smiles: C1N2CN3CN1CN(C2)C3
max response, %: 6.42

====

protocol-text: qHTS of pediatric cancer cell lines to identify multiple opportunities for drug repurposing: Primary screen for SJ-GBM2 cells (AID 1347091)
stated-conditions: SJ-GBM2 viability, CellTiter-Glo luminescence, 48 h; series mostly up to 46 µM
Inconclusive results are not listed. Activity calls are given as the source filed them. Calls follow the shape of the dose curve; as a rule, active = well fitted cell-killing curve with a large enough effect; inconclusive = small, poorly fitted or top-dose-only effect; inactive = no such curve, though single readings can be large or run the other way.
Labels: true (active), false (inactive)

compound: CC(C)CCCC(C)NCCC(C)C (stereo not drawn)
class-assignment: false
--
compound: O=C(O)c1ccccc1S
class-assignment: false
--
compound: O=C(O)Cn1c(=O)n(Cc2ccc(Br)cc2F)c(=O)c2ccc(Cl)cc21
class-assignment: false
--
compound: Nc1ccc2c(c1)CN1C(=O)c3ccccc3C1=N2
class-assignment: false
--
compound: O=C(O)c1ccccc1Nc1cc(Cl)ccc1C(=O)O
class-assignment: false
--
compound: COc1cc2nc(Cl)nc(N)c2cc1OC
class-assignment: false
--
compound: CCC(=O)O[C@H]1[C@H](O[C@@H]2[C@@H](C)[C@H](O[C@H]3C[C@@](C)(OC)[C@@H](O)[C@H](C)O3)[C@@H](C)C(=O)O[C@H](CC)[C@@](C)(O)[C@H](O)[C@@H](C)C(=O)[C@H](C)C[C@@]2(C)O)O[C@H](C)C[C@@H]1N(C)C
class-assignment: false
--
compound: OCCOCCN1CCN(C(c2ccccc2)c2ccc(Cl)cc2)CC1 (stereo not drawn)
class-assignment: false
--
compound: COc1cc(NS(=O)(=O)c2ccc(N)cc2)nc(C)n1
class-assignment: false
--
compound: CN1CCCN=C1/C=C/c1cccs1
class-assignment: false
--
compound: O=c1[nH]c2ccccc2c(=O)n1CCCl
class-assignment: false
--
compound: Cc1c(F)cc2c(=O)c(C(=O)O)cn3c2c1CCC3C (stereo not drawn)
class-assignment: false
--
compound: Cc1nc([N+](=O)[O-])cn1-c1ccc([N+](=O)[O-])cc1
class-assignment: false
--
compound: COc1ccc2cc(C=O)ccc2c1
class-assignment: false
--
compound: CN1Cc2cc(C(=O)N3CCC(C4CCNCC4)CC3)ccc2NC(CC(=O)O)C1=O (stereo not drawn)
class-assignment: false
--
compound: O=C(Oc1ccccc1)c1cccc(C(=O)Oc2ccccc2)c1
class-assignment: false
--
compound: CC(C)C[C@H](NC(=O)CNC(=O)[C@H](Cc1ccc(O)cc1)NC(=O)[C@H](CO)NC(=O)[C@H](Cc1c[nH]c2ccccc12)NC(=O)[C@H](Cc1cnc[nH]1)NC(=O)[C@@H]1CCC(=O)N1)C(=O)N[C@@H](CCCN=C(N)N)C(=O)N1CCC[C@H]1C(=O)NCC(N)=O (stereo in doubt)
class-assignment: false
--
compound: CCCc1c2oc(C(=O)O)cc(=O)c2cc2c(=O)cc(C(=O)O)n(CC)c12
class-assignment: false
--
compound: O=C(Nc1ccc(Cl)cc1)Nc1ccc(Cl)c(C(F)(F)F)c1
class-assignment: true
--
compound: CC(=O)c1cc2ccccc2s1
class-assignment: false
--
compound: CC(=O)O[C@@H]1CC2C3CCc4cc(OC(=O)c5ccccc5)ccc4C3CCC2(C)[C@H]1OC(C)=O (stereo partly drawn)
class-assignment: false
--
compound: O=C(OCC(COC(=O)c1cccnc1)(COC(=O)c1cccnc1)COC(=O)c1cccnc1)c1cccnc1
class-assignment: false
--
compound: C/C(=C(/OCCOc1ccc(Cl)cc1)c1ccc(Cl)cc1Cl)n1ccnc1
class-assignment: false

====

protocol-text: qHTS of pediatric cancer cell lines to identify multiple opportunities for drug repurposing: Primary screen for NB1643 cells (AID 1347099); also: nearly all actives have a fitted effect of over 50% in size
stated-conditions: NB1643 neuroblastoma viability, CellTiter-Glo luminescence, 48 h; series mostly up to 46 µM
Method: Drug repurposing or repositioning has been offered as a strategy for drug development in oncology programs. This approach has special potential for childhood cancers and other rare or orphan diseases, where the expected return on new drug development has been a disincentive to pharmaceuticals. […] We employed a titration-based paradigm (quantitative high-throughput screening or qHTS), where all compounds were tested at multiple concentrations for their effect on cell viability. […]
Inconclusive results are not listed. Activity calls are given as the source filed them. The call rests on the fitted dose curve; in most records, active means well fitted cell-killing curve with a large enough effect; inconclusive means small, poorly fitted or top-dose-only effect; inactive means no such curve, though single readings can be large or run the other way.
Outcomes: 1.0 for active, 0.0 for inactive

compound: Cc1cc(C(C)(C)C)c(O)c(C(C)(C)C)c1
class-assignment: 0.0
--
compound: CCN(CC)CCN
class-assignment: 0.0
--
compound: Cc1nc(C2CCCCC2)c(-c2ccc(S(N)(=O)=O)c(F)c2)o1
class-assignment: 0.0
--
compound: CCS(=O)(=O)c1ccc(OC)c(C(=O)OC)c1
class-assignment: 0.0
--
compound: O=C(O)Cn1c(=O)n(Cc2ccc(Br)cc2F)c(=O)c2ccc(Cl)cc21
class-assignment: 0.0
--
compound: OCCc1ccccc1
class-assignment: 0.0
--
compound: CC(C)CCCC(C)NCCC(C)C (configuration not stated)
class-assignment: 0.0
--
compound: CCC(=O)Oc1ccc2c(c1)CC[C@@H]1[C@@H]2CC[C@@]2(C)[C@H]1C[C@@H](OC(=O)CC)[C@@H]2OC(=O)CC
class-assignment: 0.0
--
compound: CC1(C)S[C@@H]2[C@H](NC(=O)C(c3ccccc3)S(=O)(=O)O)C(=O)N2[C@H]1C(=O)O (some centres not stated)
class-assignment: 0.0
--
compound: O=C(O)c1ccc(OCCN2CCCCC2)cc1
class-assignment: 0.0
--
compound: Cc1ccc2ccc(Cl)cc2n1
class-assignment: 0.0
--
compound: Cc1ccc(-c2ccccc2C#N)cc1
class-assignment: 0.0
--
compound: CCOC(=O)c1cc(=O)c2c(OCC(COc3cccc4oc(C(=O)OCC)cc(=O)c34)OC(=O)[C@@H](N)CCCCN)cccc2o1
class-assignment: 0.0
--
compound: CC1CC(=O)NN=C1c1ccc(NCC(C)(C)NCC(O)COc2cc(Cl)ccc2C#N)cc1 (configuration not stated)
class-assignment: 0.0
--
compound: CCC1=C[C@@H]2CN(C1)Cc1c([nH]c3ccccc13)[C@@](C(=O)OC)(c1cc3c(cc1OC)N(C)[C@H]1[C@@](O)(C(=O)OC)[C@H](OC(C)=O)[C@]4(CC)C=CCN5CC[C@]31[C@@H]54)C2
class-assignment: 1.0
--
compound: COc1ccccc1N1CCN(CC(O)COc2cc(OC)c(OC)c(OC)c2)CC1 (configuration not stated)
class-assignment: 0.0
--
compound: O=C1CC2(CCCC2)CC(=O)N1CCNCC1COc2ccccc2O1 (configuration not stated)
class-assignment: 0.0

====

protocol-text: qHTS of pediatric cancer cell lines to identify multiple opportunities for drug repurposing: Primary screen for NB1643 cells (AID 1347099); also: nearly all actives have a fitted effect of over 50% in size
stated-conditions: NB1643 neuroblastoma viability, CellTiter-Glo luminescence, 48 h; series mostly up to 46 µM
Description: Drug repurposing or repositioning has been offered as a strategy for drug development in oncology programs. This approach has special potential for childhood cancers and other rare or orphan diseases, where the expected return on new drug development has been a disincentive to pharmaceuticals. […] We employed a titration-based paradigm (quantitative high-throughput screening or qHTS), where all compounds were tested at multiple concentrations for their effect on cell viability. […]
Inconclusive results are not listed. The source made the active and inactive calls. Calls come from the whole dose curve; as a rule, active = well fitted cell-killing curve with a large enough effect; inconclusive = small, poorly fitted or top-dose-only effect; inactive = no such curve, though single readings can be large or run the other way.
Possible outcomes: active, inactive

compound: CN1CCC(Nc2ncc3ncnc(Nc4ccc(F)c(Cl)c4)c3n2)CC1
class-assignment: inactive

compound: NS(=O)(=O)c1cc2c(cc1Cl)CN(C1CCCCC1)C2=O
class-assignment: inactive

compound: CC(C)=CCNc1ncnc2c1ncn2[C@@H]1O[C@H](CO)[C@@H](O)[C@H]1O
class-assignment: active

compound: CC(=O)OCC[N+](C)(C)C
class-assignment: inactive

compound: Cc1cc(O)c(C)c(C)c1O
class-assignment: inactive

compound: CO[C@]1(NC(=O)CSC(F)F)C(=O)N2C(C(=O)O)=C(CSc3nnnn3CCO)CO[C@H]21
class-assignment: inactive

compound: CCCCN(CCCC)C(C(N)=O)c1ccc(OC)cc1 (stereo unspecified)
class-assignment: inactive

compound: OC(CCCN1CCCCC1)(c1ccccc1)c1ccccc1
class-assignment: inactive

compound: NC(=O)NS(=O)(=O)c1ccc(Cl)cc1
class-assignment: inactive

compound: COC(=O)/C=C\C(=O)OC
class-assignment: inactive

compound: O=C(CCCl)NCc1ccccc1
class-assignment: inactive

compound: Cc1cccc(C)c1NC(=O)c1cc(S(N)(=O)=O)c(Cl)cc1O
class-assignment: inactive

compound: O=C(O)Cc1ccc(OCCNC[C@H](O)c2ccccc2)cc1
class-assignment: inactive

compound: Cc1ncc([N+](=O)[O-])n1C
class-assignment: inactive

compound: c1ccc2occc2c1
class-assignment: inactive

compound: CC(C)(C)CC(=O)OCC(=O)[C@@]1(O)CC[C@H]2[C@@H]3CCC4=CC(=O)C=C[C@]4(C)[C@H]3[C@@H](O)C[C@@]21C
class-assignment: inactive
